Tested on: SK-BR-3
Test: Antiproliferative activity against human SK-BR-3 cells assessed as inhibition of cell proliferation
Assay type: functional, cell-based
Observation type: pIC50
Scale explanation: pIC50 corresponds to minus log10 of a concentration expressed in moles per litre.

COc1cccc(-c2cc(C(=O)Nc3ccc(/C=C/c4ccc(OC5CCN(C)CC5)cc4)cc3)ccc2OC)c1; 6.17

# context switch: different compound, same pIC50
Requested field: pIC50. Item: `Cc1ccc(Cn2cc(C(=O)Nc3ccc(/C=C/c4ccc(OC5CCN(C)CC5)cc4)cc3)nn2)cc1` 7.00

###

Test system: NCI-H1299
Assay: Antiproliferative activity against human NCI-H1299 cells assessed as inhibition of cell growth incubated for 3 days by MTT assay
Assay type: functional, cell-based
Conditions: NCI-H1299, 72 h
Observation type: pIC50
Scale explanation: pIC50 corresponds to minus log10 of a concentration expressed in moles per litre.

Requested field: pIC50. Item: COc1cc2nccc(C(OC(C)=O)c3ccc4c(c3OC)C=CC(C)(C)O4)c2cc1OC (stereo unspecified) 6.00

Taken from ChEMBL document CHEMBL5223152.
